# assay.system: T1, murine CCR2 (murine, UniProt P51683 1-373)
# T1 construct: whole, on cells; also called mouse CCR2; murine CCR2-expressing cells (WEHI 274.1)
# T1 sequence (P51683 whole entry): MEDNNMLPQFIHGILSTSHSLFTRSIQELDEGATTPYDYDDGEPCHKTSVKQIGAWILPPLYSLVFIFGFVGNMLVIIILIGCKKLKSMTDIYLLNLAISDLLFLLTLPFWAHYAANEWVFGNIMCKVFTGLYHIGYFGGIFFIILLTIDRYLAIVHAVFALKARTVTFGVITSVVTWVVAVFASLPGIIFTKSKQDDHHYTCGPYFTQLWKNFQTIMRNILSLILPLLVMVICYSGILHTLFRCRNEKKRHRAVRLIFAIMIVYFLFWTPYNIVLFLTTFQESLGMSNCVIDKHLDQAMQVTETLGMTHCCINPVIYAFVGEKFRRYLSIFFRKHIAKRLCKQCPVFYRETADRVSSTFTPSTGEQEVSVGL
# assay.notes: flow cytometry on WEHI 274.1 cells (murine CCR2), PE anti-human IgG
property.label: EC50 (nM)
Provide the reading as a plain figure in nM.

Problem: Entry D1-1/LO (antibody, V domains shown, The suffix '/LO' is not explained) VH: QVQLVQSGAEVKKPGASVKVSCKASGYTFTGYYMHWVRQAPGQGLEWMGWINPNSGVTKYAQKFQGRVTMTRDTSTSTVYMELSSLRSEDTAVYYCATGGFGYWGEGTLVTVSS VL: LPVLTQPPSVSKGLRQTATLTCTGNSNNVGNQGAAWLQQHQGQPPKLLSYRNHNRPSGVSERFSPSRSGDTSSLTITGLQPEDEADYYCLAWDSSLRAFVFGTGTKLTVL : reported EC50 = ?
Solution: 4.8

Problem: Entry D1 (antibody, human IgG1, V domains shown, also called CCR2 D1 IgG; anti-CCR2 D1 antibody) VH: EVQLVQSGAEVKKPGASVKVSCKASGYTFTGYHMHWVRQAPGQGLEWMGWINPNSGVTKYAQKFQGRVTMTRDTSINTAYMELSRLRFDDTDVYYCATGGFGYWGEGTLVTVSS VL: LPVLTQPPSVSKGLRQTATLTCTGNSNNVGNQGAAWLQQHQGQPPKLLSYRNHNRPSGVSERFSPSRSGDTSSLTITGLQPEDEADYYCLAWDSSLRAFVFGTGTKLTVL : reported EC50 = ?
Solution: 1.5

Problem: Entry D1-1/45H8L1 (antibody, V domains shown, also called D1H1/45H8L1; D1-1B) VH: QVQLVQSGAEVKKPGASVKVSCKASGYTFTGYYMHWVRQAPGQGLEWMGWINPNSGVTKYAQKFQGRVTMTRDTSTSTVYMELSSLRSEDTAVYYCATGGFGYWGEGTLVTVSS VL: QAVLTQPPSVSKGLRQTATLTCTGNSNNVGNQGAAWLQQHQGQPPKLLSYRNHNRPSGVSERFSPSRSGDTSSLTITGLQPEDEADYYCLAWDSSLRAFVFGTGTKLTVL : reported EC50 = ?
Solution: 2
